system: CYP1A1 mRNA; assay: Expression of cyp1A1 mRNA in HepG2 cells stimulated with 3-methylcholanthrene (homogeneous bead-based detection oligonucleotide assay); assay type: cell-based; conditions: human, 24 h 3-MC, each of three plates, standard deviation 0.05 μM between plates
metric: EC50 at 24 h (nM)
Give the value, in units of nM, as a plain number.

The recorded EC50 at 24 h for entry `Cc1ccc2cc3c(ccc4ccccc43)c3c2c1CC3` equals 800
